Overview of recorded T/C for various compounds
test system: Mus musculus; experiment: In vivo antitumor activity against murine sarcoma 180 cells at an optimal dose of 8 mg/kg.; format: functional
Number only, no unit.

Past entries and their recorded results:
compound | T/C
COCCOCCOCCOCCOCC(=O)O[C@@H]1/C=C(\C)CC[C@]2(CC(=O)N[C@@H](C)c3nc(cs3)/C=C\C=C\C1=O)[S+]([O-])SC(=O)[C@]2(C)O (stereo partly drawn) | 0.51
COCCOCCOCCOCCOCCOCC(=O)O[C@@H]1/C=C(\C)CC[C@]2([C@@](C)(O)C(=O)SCc3oc(=O)oc3C)CC(=O)N([C@H](C)c3nc(cs3)/C=C/C=C/C1=O)[S+]2[O-] (stereo partly drawn) | 0.58

Qu. Quick one: T/C of C/C1=C\[C@@H](OC(=O)CNC(=O)CN(C)C(=O)OCc2ccccc2)C(=O)/C=C/C=C\c2csc(n2)[C@H](C)NC(=O)C[C@@]2(CC1)[S+]([O-])SC(=O)[C@]2(C)O (stereo partly drawn) ?
Ans. 0.61
